target.system: D(3) dopamine receptor (Homo sapiens)
Sequence (P35462 whole entry): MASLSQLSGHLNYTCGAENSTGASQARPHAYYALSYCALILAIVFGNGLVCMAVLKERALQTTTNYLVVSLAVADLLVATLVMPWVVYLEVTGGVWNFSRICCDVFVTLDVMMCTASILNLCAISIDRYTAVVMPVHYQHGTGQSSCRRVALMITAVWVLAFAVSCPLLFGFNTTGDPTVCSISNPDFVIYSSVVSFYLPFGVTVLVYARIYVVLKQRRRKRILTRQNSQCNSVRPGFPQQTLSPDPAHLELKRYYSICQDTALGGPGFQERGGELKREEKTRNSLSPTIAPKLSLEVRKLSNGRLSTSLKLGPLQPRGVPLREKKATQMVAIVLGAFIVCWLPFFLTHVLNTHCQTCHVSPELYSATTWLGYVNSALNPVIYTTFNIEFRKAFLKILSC
Binary call on Ki with cut-off 60 nM: strictly below means 1 (yes), and equality or higher means 0 (no).

structure.as.smiles	answer.label
COc1ccc2onc(N3CCN(CCCCNC(=O)c4cc(-c5ccco5)n[nH]4)CC3)c2c1	1 (yes)
COc1ccc2oc(N3CCN(CCCCNC(=O)c4cc5cccc(OC)c5o4)CC3)nc2c1	0 (no)
COc1ccccc1N1CCN(CCCCNC(=O)c2cc3cccc(OC)c3o2)CC1	1 (yes)

Regarding COc1ccc2ccnc(N3CCN(CCCCNC(=O)c4cc5cccc(OC)c5o4)CC3)c2c1 , kindly confirm whether its Ki is beneath 60 nM. 0 (no)

Regarding COc1ccccc1N1CCN(CCCCNC(=O)c2cc(-c3ccco3)[nH]n2)CC1 , kindly confirm whether its Ki is beneath 60 nM. 1 (yes)

Regarding COc1ccc2onc(N3CCN(CCCCNC(=O)c4ccc5c(c4)OCO5)CC3)c2c1 , kindly confirm whether its Ki is beneath 60 nM. 0 (no)

Regarding COc1ccc2onc(N3CCN(CCCCNC(=O)c4cc5cccc(OC)c5o4)CC3)c2c1 , kindly confirm whether its Ki is beneath 60 nM. 0 (no)

Regarding COc1ccccc1N1CCN(CCCCNC(=O)c2ccc(N3CCOCC3)cc2)CC1 , kindly confirm whether its Ki is beneath 60 nM. 1 (yes)

Regarding COc1ccc2onc(N3CCN(CCCCNC(=O)c4ccc(-n5ccnc5)cc4)CC3)c2c1 , kindly confirm whether its Ki is beneath 60 nM. 1 (yes)

Regarding COc1ccc2onc(N3CCN(CCCCNC(=O)c4cccc(N5CCOCC5)c4)CC3)c2c1 , kindly confirm whether its Ki is beneath 60 nM. 0 (no)

---

Property: Ki; scope: individual compounds
target.system: D(2) dopamine receptor (Homo sapiens, UniProt P14416)
Sequence (P14416 whole entry): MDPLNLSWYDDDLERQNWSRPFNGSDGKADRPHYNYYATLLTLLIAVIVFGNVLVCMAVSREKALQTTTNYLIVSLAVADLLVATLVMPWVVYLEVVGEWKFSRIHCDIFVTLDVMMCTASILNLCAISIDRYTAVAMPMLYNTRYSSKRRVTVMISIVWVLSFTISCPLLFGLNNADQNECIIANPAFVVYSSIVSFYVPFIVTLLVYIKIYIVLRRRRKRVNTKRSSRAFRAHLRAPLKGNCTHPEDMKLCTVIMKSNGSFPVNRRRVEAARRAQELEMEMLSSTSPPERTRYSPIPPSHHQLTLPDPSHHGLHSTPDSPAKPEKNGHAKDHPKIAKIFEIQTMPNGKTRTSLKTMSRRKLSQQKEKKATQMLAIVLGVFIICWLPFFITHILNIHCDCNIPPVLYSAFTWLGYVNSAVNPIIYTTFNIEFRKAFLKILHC
procedure.text: biochemical
Description: Displacement of [3H]spiroperidol from cloned human dopamine receptor D2(long) expressed in rat C6 glioma cells
The reply should contain only the number, in nM.

Some compounds with known Ki results, for comparison:
structure.as.smiles	target.system	unit	Ki
COc1ccccc1N1CCN(CCCCNC(=O)c2cc(-c3ccco3)[nH]n2)CC1	D(2) dopamine receptor (Homo sapiens, UniProt P14416)	nM	130
COc1ccccc1N1CCN(CCCCNC(=O)c2ccc3nccnc3c2)CC1	D(2) dopamine receptor (Homo sapiens, UniProt P14416)	nM	179
COc1cccc2cc(C(=O)NCCCCN3CCN(c4[nH]nc5ccccc45)CC3)oc12	D(2) dopamine receptor (Homo sapiens, UniProt P14416)	nM	56.6

Sample COc1cccc2cc(C(=O)NCCCCN3CCN(c4cccc5nccnc45)CC3)oc12 ; Ki observed: 1250

Sample COc1ccccc1N1CCN(CCCCNC(=O)c2ccc(N3CCOCC3)cc2)CC1 ; Ki observed: 141

Sample COc1ccccc1N1CCN(CCCCNC(=O)c2ccc(-n3ccnc3)cc2)CC1 ; Ki observed: 27.2

---

procedure.text: Distribution coefficient at pH 7.4
Assay type: physicochemical
reported.conditions: octanol/water
assay.endpoint: logD
Lab note: jot down the number only; don't add units.

structure.as.smiles	logD
COc1ccc2onc(N3CCN(CCCCNC(=O)c4cc(-c5ccco5)n[nH]4)CC3)c2c1	2.43
COc1ccc2onc(N3CCN(CCCCNC(=O)c4ccc(N5CCOCC5)cc4)CC3)c2c1	2.96

Sample COc1ccc2onc(N3CCN(CCCCNC(=O)c4ccc(-n5ccnc5)cc4)CC3)c2c1 ; logD observed: 2.42

---

procedure.text: Apparent permeability assessed by Caco-2 layer assay
Format: ADME, cell-based
reported.conditions: human
Property: Papp; scope: individual molecules
The reply should contain only the number, in ×10⁻⁶ cm/s.

Some molecules with known Papp results, for comparison:
structure.as.smiles	unit	Papp
COc1ccc2onc(N3CCN(CCCCNC(=O)c4cc(-c5ccco5)n[nH]4)CC3)c2c1	×10⁻⁶ cm/s	7.39
COc1ccc2onc(N3CCN(CCCCNC(=O)c4ccc(-n5ccnc5)cc4)CC3)c2c1	×10⁻⁶ cm/s	6.56

For the next question, use this molecule.
Sample COc1ccc2onc(N3CCN(CCCCNC(=O)c4ccc(N5CCOCC5)cc4)CC3)c2c1 ; Papp observed: 36.3

---

Property: logP; scope: individual compounds
procedure.text: Partition coefficient measured
Assay type: physicochemical
reported.conditions: octanol/water
Lab note: jot down the number only; don't add units.

structure.as.smiles	assay.endpoint	numeric.readout
COc1ccc2onc(N3CCN(CCCCNC(=O)c4ccc(N5CCOCC5)cc4)CC3)c2c1	logP	3.16
COc1ccc2onc(N3CCN(CCCCNC(=O)c4ccc(-n5ccnc5)cc4)CC3)c2c1	logP	2.63

For the next question, use this compound.
Sample COc1ccc2onc(N3CCN(CCCCNC(=O)c4cc(-c5ccco5)n[nH]4)CC3)c2c1 ; logP observed: 2.98

---

Property: pKi; scope: individual compounds
target.system: D(2) dopamine receptor (Homo sapiens, UniProt P14416)
procedure.text: biochemical
pKi: −log10 of the molar value.

structure.as.smiles	target.system	assay.endpoint	result
COc1ccc2onc(N3CCN(CCCCNC(=O)c4ccc5nccnc5c4)CC3)c2c1	D(2) dopamine receptor (Homo sapiens, UniProt P14416)	pKi	< 6.12
COc1ccc2onc(N3CCN(CCCCNC(=O)c4cccc(N5CCOCC5)c4)CC3)c2c1	D(2) dopamine receptor (Homo sapiens, UniProt P14416)	pKi	< 6.00
COc1ccccc1N1CCN(CCCCNC(=O)c2ccc3nonc3c2)CC1	D(2) dopamine receptor (Homo sapiens, UniProt P14416)	pKi	< 6.00
COc1ccc2onc(N3CCN(CCCCNC(=O)c4ccc(-n5ccnc5)cc4)CC3)c2c1	D(2) dopamine receptor (Homo sapiens, UniProt P14416)	pKi	< 6.12
COc1ccc2onc(N3CCN(CCCCNC(=O)c4cccc(-c5noc(C)n5)c4)CC3)c2c1	D(2) dopamine receptor (Homo sapiens, UniProt P14416)	pKi	< 6.00

For the next question, use this compound.
Entry COc1ccc2onc(N3CCN(CCCCNC(=O)c4cc(-c5ccco5)n[nH]4)CC3)c2c1 under D(2) dopamine receptor (Homo sapiens, UniProt P14416) had pKi of < 6.12
